Value source: paper PMC9673804

# experimentalTarget: human DHFR enzyme (Homo sapiens, UniProt P00374)
# Construct: purchased MyBioSource MBS9312476
# methodNotes: Elisa assay of human DHFR enzyme
# Format: biochemical
# conditionSet: conc 1 uM
measuredEndpoint: inhibition at 1 µM

response.value for O=C(NC(CS)C(=O)O)c1ccc(Nc2ncnc3c2cnn3-c2ccccc2)cc1 (stereo not drawn) [Compound 7g] (field: inhibition at 1 µM) = 55%

response.value for O=C(NC(Cc1c[nH]c2ccccc12)C(=O)O)c1ccc(Nc2ncnc3c2cnn3-c2ccccc2)cc1 (stereo not drawn) [Compound 7k] (field: inhibition at 1 µM) = 37%

response.value for CCC(C)C(NC(=O)c1ccc(Nc2ncnc3c2cnn3-c2ccccc2)cc1)C(=O)O (stereo not drawn) [Compound 7d] (field: inhibition at 1 µM) = 66%

response.value for O=C(c1ccc(Nc2ncnc3c2cnn3-c2ccccc2)cc1)n1nnc2ccccc21 [Compound 6] (field: inhibition at 1 µM) = 29%

response.value for O=C(O)CCC(NC(=O)c1ccc(Nc2ncnc3c2cnn3-c2ccccc2)cc1)C(=O)O (stereo not drawn) [Compound 7e] (field: inhibition at 1 µM) = 57%

response.value for O=C(NC(Cc1ccc(O)cc1)C(=O)O)c1ccc(Nc2ncnc3c2cnn3-c2ccccc2)cc1 (stereo not drawn) [Compound 7m] (field: inhibition at 1 µM) = 52%

====

Can you tell me IC50 for the items I'm about to list?
Protein target, amino acids: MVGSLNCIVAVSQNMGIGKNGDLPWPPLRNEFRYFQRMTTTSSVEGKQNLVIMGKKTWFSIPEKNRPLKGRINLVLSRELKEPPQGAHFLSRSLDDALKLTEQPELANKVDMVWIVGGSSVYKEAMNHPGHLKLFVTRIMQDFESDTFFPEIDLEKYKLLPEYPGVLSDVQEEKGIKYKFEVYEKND
// return numeric value only (unit: µM, not printed)

response.value for CSCCC(NC(=O)c1ccc(Nc2ncnc3c2cnn3-c2ccccc2)cc1)C(=O)O (stereo not drawn) (field: IC50) = 8.47

response.value for O=C(NC(Cc1ccc(O)cc1)C(=O)O)c1ccc(Nc2ncnc3c2cnn3-c2ccccc2)cc1 (stereo not drawn) (field: IC50) = 1.34

response.value for O=C(NC(CS)C(=O)O)c1ccc(Nc2ncnc3c2cnn3-c2ccccc2)cc1 (stereo not drawn) (field: IC50) = 1.28

====

Can you tell me inhibition at 0.1 µM for the items I'm about to list?
# experimentalTarget: human DHFR enzyme (Homo sapiens, UniProt P00374)
# Construct: purchased MyBioSource MBS9312476
# Sequence (P00374 1-187): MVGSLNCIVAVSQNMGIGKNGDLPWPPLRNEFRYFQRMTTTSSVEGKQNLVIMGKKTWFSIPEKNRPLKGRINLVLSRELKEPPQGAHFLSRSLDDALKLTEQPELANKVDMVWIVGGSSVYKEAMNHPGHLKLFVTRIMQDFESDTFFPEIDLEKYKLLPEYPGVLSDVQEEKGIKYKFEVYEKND
# methodNotes: Elisa assay of human DHFR enzyme
# Type: biochemical
# conditionSet: conc 0.1 uM
// return numeric value only (unit: %, not printed)

Hey, human DHFR enzyme (Homo sapiens, UniProt P00374) data for O=C(NC(Cc1ccc(O)cc1)C(=O)O)c1ccc(Nc2ncnc3c2cnn3-c2ccccc2)cc1 (centres unmarked) [Compound 7m] : inhibition at 0.1 µM came out at 36

Hey, human DHFR enzyme (Homo sapiens, UniProt P00374) data for O=C(O)CNC(=O)c1ccc(Nc2ncnc3c2cnn3-c2ccccc2)cc1 [Compound 7a] : inhibition at 0.1 µM came out at 12

Hey, human DHFR enzyme (Homo sapiens, UniProt P00374) data for O=C(NC(Cc1c[nH]c2ccccc12)C(=O)O)c1ccc(Nc2ncnc3c2cnn3-c2ccccc2)cc1 (centres unmarked) [Compound 7k] : inhibition at 0.1 µM came out at 21

Hey, human DHFR enzyme (Homo sapiens, UniProt P00374) data for O=C(O)C1CCCN1C(=O)c1ccc(Nc2ncnc3c2cnn3-c2ccccc2)cc1 (centres unmarked) [Compound 7j] : inhibition at 0.1 µM came out at 41

Hey, human DHFR enzyme (Homo sapiens, UniProt P00374) data for CC(C)C(NC(=O)c1ccc(Nc2ncnc3c2cnn3-c2ccccc2)cc1)C(=O)O (centres unmarked) [Compound 7c] : inhibition at 0.1 µM came out at 39

Hey, human DHFR enzyme (Homo sapiens, UniProt P00374) data for O=C(NC(Cc1c[nH]cn1)C(=O)O)c1ccc(Nc2ncnc3c2cnn3-c2ccccc2)cc1 (centres unmarked) [Compound 7i] : inhibition at 0.1 µM came out at 35

Hey, human DHFR enzyme (Homo sapiens, UniProt P00374) data for N=C(N)NCCCC(NC(=O)c1ccc(Nc2ncnc3c2cnn3-c2ccccc2)cc1)C(=O)O (centres unmarked) [Compound 7f] : inhibition at 0.1 µM came out at 44

Hey, human DHFR enzyme (Homo sapiens, UniProt P00374) data for CSCCC(NC(=O)c1ccc(Nc2ncnc3c2cnn3-c2ccccc2)cc1)C(=O)O (centres unmarked) [Compound 7h] : inhibition at 0.1 µM came out at 21

Hey, human DHFR enzyme (Homo sapiens, UniProt P00374) data for O=C(O)CCC(NC(=O)c1ccc(Nc2ncnc3c2cnn3-c2ccccc2)cc1)C(=O)O (centres unmarked) [Compound 7e] : inhibition at 0.1 µM came out at 28

Hey, human DHFR enzyme (Homo sapiens, UniProt P00374) data for O=C(NC(CS)C(=O)O)c1ccc(Nc2ncnc3c2cnn3-c2ccccc2)cc1 (centres unmarked) [Compound 7g] : inhibition at 0.1 µM came out at 37

Hey, human DHFR enzyme (Homo sapiens, UniProt P00374) data for O=C(c1ccc(Nc2ncnc3c2cnn3-c2ccccc2)cc1)n1nnc2ccccc21 [Compound 6] : inhibition at 0.1 µM came out at 17

Hey, human DHFR enzyme (Homo sapiens, UniProt P00374) data for CC(NC(=O)c1ccc(Nc2ncnc3c2cnn3-c2ccccc2)cc1)C(=O)O (centres unmarked) [Compound 7b] : inhibition at 0.1 µM came out at 6.4

Hey, human DHFR enzyme (Homo sapiens, UniProt P00374) data for CCC(C)C(NC(=O)c1ccc(Nc2ncnc3c2cnn3-c2ccccc2)cc1)C(=O)O (centres unmarked) [Compound 7d] : inhibition at 0.1 µM came out at 42

Hey, human DHFR enzyme (Homo sapiens, UniProt P00374) data for O=C(NC(Cc1ccccc1)C(=O)O)c1ccc(Nc2ncnc3c2cnn3-c2ccccc2)cc1 (centres unmarked) [Compound 7l] : inhibition at 0.1 µM came out at 34
